# experimental_target: PARP1 (Homo sapiens, UniProt P09874)
# Construct: purchased Trevigen
# Sequence (P09874 whole entry): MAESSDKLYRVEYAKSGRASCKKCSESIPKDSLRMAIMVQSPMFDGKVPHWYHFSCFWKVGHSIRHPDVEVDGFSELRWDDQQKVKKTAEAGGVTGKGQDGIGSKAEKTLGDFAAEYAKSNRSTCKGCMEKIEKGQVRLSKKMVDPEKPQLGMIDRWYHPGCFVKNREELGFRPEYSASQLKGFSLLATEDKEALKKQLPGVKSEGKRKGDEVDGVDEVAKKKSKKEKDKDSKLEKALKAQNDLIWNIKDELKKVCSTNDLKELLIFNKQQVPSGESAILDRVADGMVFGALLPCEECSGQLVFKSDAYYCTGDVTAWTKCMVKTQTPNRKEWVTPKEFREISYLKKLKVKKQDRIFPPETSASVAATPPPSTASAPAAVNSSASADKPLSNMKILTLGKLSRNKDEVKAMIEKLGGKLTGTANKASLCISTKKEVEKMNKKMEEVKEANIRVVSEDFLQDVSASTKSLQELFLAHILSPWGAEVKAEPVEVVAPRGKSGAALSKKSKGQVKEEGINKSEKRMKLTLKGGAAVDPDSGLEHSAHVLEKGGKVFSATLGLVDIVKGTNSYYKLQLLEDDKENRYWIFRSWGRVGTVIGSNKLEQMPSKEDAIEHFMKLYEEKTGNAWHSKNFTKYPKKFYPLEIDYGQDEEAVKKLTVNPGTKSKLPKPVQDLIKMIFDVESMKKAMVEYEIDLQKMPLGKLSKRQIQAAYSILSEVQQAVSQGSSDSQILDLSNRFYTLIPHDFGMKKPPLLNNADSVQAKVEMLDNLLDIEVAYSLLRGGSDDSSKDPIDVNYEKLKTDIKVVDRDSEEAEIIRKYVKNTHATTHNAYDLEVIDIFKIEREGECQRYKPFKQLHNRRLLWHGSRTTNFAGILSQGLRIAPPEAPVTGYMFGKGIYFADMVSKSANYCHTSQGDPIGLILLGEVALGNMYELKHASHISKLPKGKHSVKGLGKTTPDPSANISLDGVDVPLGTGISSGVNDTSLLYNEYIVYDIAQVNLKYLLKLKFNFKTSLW
# method_description: Determination of PARP1 inhibitory activity (Universal PARP colorimetric assay kit, Trevigen)
# Type: biochemical
# experimental_context: PARP1 enzyme inhibition rate; footnote: inhibition rate below 500 nM unless indicating otherwise
# Method: Determination of PARP1 inhibitory activity Method for determining PARP1 inhibitory activity: (1) adding 50 μL of 1X PARP Buffer to each well, incubating for 30 min at room temperature, and drying; (3) adding 25 μL of 1X PARP1 cocktail to each well and incubating for 60 min at room temperature;
Output TRUE for Inhibition (%) not less than 80%; output FALSE otherwise.

Below, 3 compounds whose answers are already recorded.
> print(dat)
                                smiles.data  answer.label
1  CN(CC1=CN2C(=Nc3cccc4c(=O)[nH]nc2c34)C=C1)C1CCN(Cc2ccccc2)CC1          TRUE
2  O=c1[nH]nc2c3c(cccc13)N=C1C=CC(CN3CCOCC3)=CN12         FALSE
3  O=c1[nH]nc2c3c(cccc13)N=C1C=CC(CNCC(F)(F)F)=CN12         FALSE

Turning to the following compound.
INPUT: Would you say `O=c1[nH]nc2c3c(cccc13)N=C1C=CC(Cn3ccnc3)=CN12` shows Inhibition (%) at minimum 80%?
OUTPUT: TRUE
